Origin of measurements: patent US20250197372A1

Target: recombinant alpha-glucosidase I (human full-length glucosidase I, Glu 1) (Homo sapiens)
Construct: 6-His (C); made in house; host or cells: HEK-293T cells transduced with BacMam virus (virus raised in Sf9)
Sequence (Q13724 1-837): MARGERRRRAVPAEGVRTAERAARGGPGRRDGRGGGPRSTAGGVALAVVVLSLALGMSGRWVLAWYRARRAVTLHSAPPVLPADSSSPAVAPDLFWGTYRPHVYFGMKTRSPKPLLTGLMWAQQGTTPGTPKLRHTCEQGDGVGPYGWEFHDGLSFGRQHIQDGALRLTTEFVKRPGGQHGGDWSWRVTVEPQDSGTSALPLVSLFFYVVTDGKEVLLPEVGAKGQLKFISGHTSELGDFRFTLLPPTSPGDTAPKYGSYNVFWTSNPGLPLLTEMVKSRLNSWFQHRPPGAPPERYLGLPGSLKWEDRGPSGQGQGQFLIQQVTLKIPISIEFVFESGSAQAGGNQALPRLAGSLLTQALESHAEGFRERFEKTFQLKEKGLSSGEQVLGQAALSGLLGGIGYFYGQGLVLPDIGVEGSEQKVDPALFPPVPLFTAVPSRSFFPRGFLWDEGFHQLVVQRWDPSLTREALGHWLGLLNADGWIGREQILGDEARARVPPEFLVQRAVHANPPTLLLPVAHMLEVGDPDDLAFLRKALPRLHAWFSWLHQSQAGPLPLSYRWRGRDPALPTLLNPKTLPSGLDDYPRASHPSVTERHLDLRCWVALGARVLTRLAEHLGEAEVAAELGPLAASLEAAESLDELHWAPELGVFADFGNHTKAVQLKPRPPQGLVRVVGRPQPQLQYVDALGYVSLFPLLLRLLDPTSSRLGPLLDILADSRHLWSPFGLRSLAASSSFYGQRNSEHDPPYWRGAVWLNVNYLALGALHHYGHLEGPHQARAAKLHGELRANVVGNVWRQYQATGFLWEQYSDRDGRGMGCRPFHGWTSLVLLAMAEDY
Assay: Alpha-glucosidase I assay (Amplex Red glucose detection, synthetic trisaccharide substrate)
Type: biochemical
Details: Glucosidase 1; read-out: Glu 1 IC50
Below: a set of entries, each annotated with reported IC50.

{"COMPOUND": "COc1cc(-c2cnccn2)ccc1NCCCCCCN1C[C@H](O)[C@@H](O)[C@H](O)[C@H]1CO", "IC50": "77 nM"}
{"COMPOUND": "[N-]=[N+]=Nc1ccc(NCCc2cc(CCN3C[C@H](O)[C@@H](O)[C@H](O)[C@H]3CO)cs2)c([N+](=O)[O-])c1", "IC50": "< 1 nM"}
{"COMPOUND": "N#Cc1cc(NCc2cccc(CN3C[C@H](O)[C@@H](O)[C@H](O)[C@H]3CO)c2)cc(-c2ccc[nH]2)c1", "IC50": "< 1 nM"}
{"COMPOUND": "O=[N+]([O-])c1cc(CN2CCCO2)ccc1NCc1cccc(CN2C[C@H](O)[C@@H](O)[C@H](O)[C@H]2CO)c1", "IC50": "132 nM"}
{"COMPOUND": "[N-]=[N+]=Nc1ccc(NCCS(=O)(=O)CCCN2C[C@H](O)[C@@H](O)[C@H](O)[C@H]2CO)c([N+](=O)[O-])c1", "IC50": "1550 nM"}
{"COMPOUND": "[N-]=[N+]=Nc1ccc(NCCn2cc(CCN3C[C@H](O)[C@@H](O)[C@H](O)[C@H]3CO)nn2)c([N+](=O)[O-])c1", "IC50": "1800 nM"}
